Taken from patent EP0672658B1.

Kindly state Kd for each of the entries shown.
Target: Plasmin (Homo sapiens, UniProt P00747)
Construct: Human plasmin is purchased; purchased Boehringer Mannheim, Indianapolis, Indiana
Sequence (P00747 581-810 limits assumed): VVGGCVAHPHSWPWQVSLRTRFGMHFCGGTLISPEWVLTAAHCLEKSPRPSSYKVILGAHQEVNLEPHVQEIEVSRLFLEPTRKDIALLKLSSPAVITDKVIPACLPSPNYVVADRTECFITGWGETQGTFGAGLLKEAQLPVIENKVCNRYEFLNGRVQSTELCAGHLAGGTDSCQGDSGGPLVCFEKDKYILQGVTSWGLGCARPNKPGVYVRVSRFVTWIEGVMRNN
Sequence (P00747 97-580 partner limits assumed): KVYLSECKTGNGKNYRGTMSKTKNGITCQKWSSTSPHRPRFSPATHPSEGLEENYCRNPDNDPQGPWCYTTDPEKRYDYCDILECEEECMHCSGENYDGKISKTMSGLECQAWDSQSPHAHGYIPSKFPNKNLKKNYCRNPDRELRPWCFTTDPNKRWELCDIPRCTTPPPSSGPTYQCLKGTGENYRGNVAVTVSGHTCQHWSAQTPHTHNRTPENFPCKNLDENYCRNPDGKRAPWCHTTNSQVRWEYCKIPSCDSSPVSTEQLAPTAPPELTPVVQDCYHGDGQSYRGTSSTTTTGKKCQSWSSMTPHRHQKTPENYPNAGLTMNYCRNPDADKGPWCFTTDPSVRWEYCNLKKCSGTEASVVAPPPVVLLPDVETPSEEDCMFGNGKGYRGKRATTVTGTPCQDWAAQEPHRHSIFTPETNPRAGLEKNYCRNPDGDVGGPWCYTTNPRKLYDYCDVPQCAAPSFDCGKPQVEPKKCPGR
Assay: biochemical
Conditions: read-out: Kass Plasmin (converted)
Counter-ions that a name gives are not always drawn.
// return numeric value only (unit: µM, not printed)

Query: I am curious: what Kd value has been reported for N=C(N)c1ccc(CNC(=O)[C@@H]2CCCN2C(=O)[C@H]2CCCCN2)cc1 [Example 17, D-hPro-Pro-p-NHCH2C6H4C(NH)NH2·HCl] ?
Reply: 41.7

Query: I am curious: what Kd value has been reported for N=C(N)c1ccc(CNC(=O)CN(CCc2ccccc2)C(=O)[C@H]2CCCCN2)cc1 ?
Reply: 32.3
